# SUBJECT OF TEST: CbPrpB (Coxiella burnetii, UniProt Q83DG5)
# Sequence (Q83DG5 1-290): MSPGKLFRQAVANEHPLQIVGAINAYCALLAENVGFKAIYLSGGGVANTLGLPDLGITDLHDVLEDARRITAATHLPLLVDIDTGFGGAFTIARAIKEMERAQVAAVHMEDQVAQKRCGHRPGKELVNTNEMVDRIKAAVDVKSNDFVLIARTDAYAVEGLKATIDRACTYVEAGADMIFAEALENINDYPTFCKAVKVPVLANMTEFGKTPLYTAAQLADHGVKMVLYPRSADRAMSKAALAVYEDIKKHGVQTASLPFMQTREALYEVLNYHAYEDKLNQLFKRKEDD
VALUE TYPE: Ki (mM)
The figure you give is taken to be in mM; do not add the unit.

In: Notebook entry, CbPrpB (Coxiella burnetii, UniProt Q83DG5) assay: Ki of O=C(O)C[C@H](C(=O)O)[C@@H](O)C(=O)O [isocitrate] = ?
Out: 6
